Data origin, for the record: ChEMBL document CHEMBL1122024

Kindly supply the reported logD values for the records listed here.
# Test Details: physchem
# Condition: octanol/water, pH 7.2
Give bare numbers.

Check out these entries, answers already filled in.
query: Entry CCc1ccccc1O has what logD?
result: 2.47

query: Reported logD, compound CCCCCCCCCCCCC(=O)O [TRIDECANOATE] : ____
result: 3.12

query: For the compound shown here, Oc1c(Cl)cc(Cl)c(Cl)c1Cc1c(O)c(Cl)cc(Cl)c1Cl , give the reported logD.
result: 5.54

query: // query logD value for entry CCCCCCC(=O)O [HEPTANOATE]
result: 0.12

query: Can you share its logD? I mean this compound: Oc1ccccc1-c1ccccc1
result: 3.09

I'm hoping you can list logD for every compound here, please.
1. O=[N+]([O-])c1ccccc1O [NITROPHENOLATE]
2. CC(C)Cc1ccc(O)cc1
3. CCCCCCCCCCC(=O)O [UNDECANOATE]
4. CCc1ccc(O)cc1
5. Cc1cccc(O)c1

result:
[1.47, 3.4, 2.12, 2.26, 1.97]

query: Could you tell me which logD is on file for COc1ccccc1O ?
result: 1.33
